ASSAY SYSTEM: Cav1.2 channel (α1.2 subunit, with β2a)
PROTOCOL DESCRIPTION: cell-based or functional assay
QUANTITY: inhibition of Cav1.2 current at 30 µM peptide (%)
Answer in %, number only, no unit symbol.

Which inhibition of Cav1.2 current at 30 µM peptide value belongs to VGATLAVL [γ6 TM1b peptide] ?
6.7

Check LLILAVGV [γ6 TM1a SCR peptide] too.
3.2

Request: LTTAGAFA [γ4 TM1a peptide]
-2.5

Next:
Entry under review: VGLFFALA [γ1 TM1a T12GI16A peptide] . Reported inhibition of Cav1.2 current at 30 µM peptide?
27.5

Same question for VTLFFILA [γ1 TM1a peptide] please.
15.5
